This collection of values is drawn from patent US20220073525A1.

IC50 listing for selected molecules.
# TESTED_TARGET: USP1 (Homo sapiens)
# Sequence (O94782 whole entry): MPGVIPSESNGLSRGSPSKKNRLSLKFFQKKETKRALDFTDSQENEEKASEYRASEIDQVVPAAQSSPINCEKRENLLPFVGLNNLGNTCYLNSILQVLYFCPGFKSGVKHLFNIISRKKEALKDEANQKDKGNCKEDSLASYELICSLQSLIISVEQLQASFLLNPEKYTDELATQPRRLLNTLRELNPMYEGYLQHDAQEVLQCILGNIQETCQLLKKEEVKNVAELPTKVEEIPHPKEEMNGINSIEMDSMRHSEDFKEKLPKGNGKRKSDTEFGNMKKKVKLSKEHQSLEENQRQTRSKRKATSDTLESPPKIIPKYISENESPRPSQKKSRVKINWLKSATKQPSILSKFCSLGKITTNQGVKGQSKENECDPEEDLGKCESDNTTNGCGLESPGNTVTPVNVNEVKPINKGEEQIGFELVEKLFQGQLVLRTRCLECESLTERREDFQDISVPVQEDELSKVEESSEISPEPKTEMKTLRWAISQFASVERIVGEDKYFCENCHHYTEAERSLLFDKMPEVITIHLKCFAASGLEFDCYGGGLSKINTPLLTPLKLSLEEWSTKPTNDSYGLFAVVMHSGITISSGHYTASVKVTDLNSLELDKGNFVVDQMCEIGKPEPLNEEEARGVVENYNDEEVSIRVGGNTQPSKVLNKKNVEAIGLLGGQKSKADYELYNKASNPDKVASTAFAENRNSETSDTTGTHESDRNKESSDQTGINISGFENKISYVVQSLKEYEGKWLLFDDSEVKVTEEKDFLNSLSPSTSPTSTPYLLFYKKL
# Sequence (Q8TAF3 whole entry partner): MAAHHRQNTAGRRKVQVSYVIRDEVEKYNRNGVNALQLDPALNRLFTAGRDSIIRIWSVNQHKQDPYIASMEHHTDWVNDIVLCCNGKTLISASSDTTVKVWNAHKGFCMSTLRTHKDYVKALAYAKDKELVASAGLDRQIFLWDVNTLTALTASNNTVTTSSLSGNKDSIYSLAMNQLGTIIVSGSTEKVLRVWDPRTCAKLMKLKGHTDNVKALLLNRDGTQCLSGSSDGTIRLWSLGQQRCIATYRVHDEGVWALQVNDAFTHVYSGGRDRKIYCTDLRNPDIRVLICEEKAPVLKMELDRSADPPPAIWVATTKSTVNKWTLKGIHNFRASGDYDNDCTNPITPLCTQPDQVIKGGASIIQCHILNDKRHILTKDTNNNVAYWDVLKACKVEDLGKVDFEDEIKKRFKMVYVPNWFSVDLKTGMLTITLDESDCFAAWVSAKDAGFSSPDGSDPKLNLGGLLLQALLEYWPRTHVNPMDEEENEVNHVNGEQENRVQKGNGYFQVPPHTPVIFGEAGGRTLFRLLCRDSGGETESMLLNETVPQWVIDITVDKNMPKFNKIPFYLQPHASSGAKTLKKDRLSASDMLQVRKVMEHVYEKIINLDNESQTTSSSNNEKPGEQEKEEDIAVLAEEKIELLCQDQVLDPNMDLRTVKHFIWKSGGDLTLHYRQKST
# MEASUREMENT_PROTOCOL: Biochemical Assay for USP1 Inhibition (Ub-Rho 110 fluorescence)
# ASSAY_CONTEXT: Table 5; 30 min preincubation, Enzyme 0.025 nM, Substrate Ub-Rho 110 25 nM; read-out: IC50 (μm)
EXPERIMENTAL_READOUT: IC50

>>> print(df.to_string())
                                   molecule  experimental_readout   meas_value
0  Cc1nc(-c2cccnc2C(C)C)c2n1CCN(c1cccc(C(=O)N3CCC[C@@H]3C)c1)C2 [Compound 62]                  IC50      > 25 µM
1  Cc1nc(-c2cccnc2C(C)C)c2n1CCN(c1ccc(-c3ncn(C)n3)cc1)C2 [Compound 66]                  IC50  10 to 25 µM
2  Cc1nc(-c2cccnc2C(C)C)c2n1CCN(c1ccc(C3CCCNC3=O)cc1)C2 (centres unmarked) [Compound 29]                  IC50      > 25 µM
3  CNC(=O)c1ccc(N2CCn3c(C)nc(-c4cccnc4C(C)C)c3C2)cc1 [Compound 26]                  IC50      > 25 µM
4  Cc1nc(-c2cccnc2C(C)C)c2n1CCN(c1ccc(N3CCCCC3=O)cc1)C2 [Compound 38]                  IC50      > 25 µM
5  Cc1nc(-c2ccc(N3CCn4c(C)nc(-c5cccnc5C(C)C)c4C3)cc2)cn1C [Compound 45]                  IC50       ≤ 1 µM
6  Cc1nc(-c2cccnc2OC(F)F)c2n1CCN(c1ccc(-c3nc(C(F)(F)F)cn3C)cc1)C2 [Compound 15]                  IC50       ≤ 1 µM
7  Cc1nc(-c2cccnc2C(C)C)c2n1CCN(c1ccc(C#N)cc1)C2 [Compound 6]                  IC50      > 25 µM

* * *

# TESTED_TARGET: UniProt:O94782
# MEASUREMENT_PROTOCOL: Biochemical Assay for USP1 Inhibition (Ub-Rho 110 fluorescence)
# ASSAY_CONTEXT: Table 5; 30 min preincubation, Enzyme 0.025 nM, Substrate Ub-Rho 110 25 nM; read-out: IC50 (μm)
pIC50: −log10 of the molar value.
EXPERIMENTAL_READOUT: pIC50

In [3]: df
Out[3]:
                                    compound    meas_value
 0  Cc1nc(-c2cccnc2C(C)C)c2n1CCN(c1ccc(-c3cncn3C)cc1)C2        < 4.60
 1  Cc1cc(N2CCn3c(C)nc(-c4cccnc4C(C)C)c3C2)ccc1N1CCCC1=O        < 4.60
 2  Cc1nc(-c2cccnc2C(C)C)c2n1CCN(c1cnc(-c3nc(C(F)(F)F)cn3C)cn1)C2        ≥ 6.00
 3  Cc1ccn(-c2ccc(N3CCn4c(C)nc(-c5cccnc5C(C)C)c4C3)cc2)n1        ≥ 6.00
 4  Cc1nc(-c2cccnc2C(C)C)c2n1CCN(c1ccc(C(=O)N(C)C)cc1F)C2  4.60 to 5.00
 5  Cc1nc(-c2cccnc2C(C)C)c2n1C(C)CN(c1ccc(-c3nc(C(F)(F)F)cn3C)cc1)C2 (stereo not shown) [Compound 56]        ≥ 6.00
 6  Cc1nc(-c2cccnc2C(C)C)c2n1CCN(c1ccc(-c3nc(C(F)(F)F)cn3C)cn1)C2        ≥ 6.00
 7  Cc1nc(-c2cccnc2OC(F)F)c2n1CCN(c1ccc(-c3nc(C(F)(F)F)cn3C)cc1)C2C (single isomer, unassigned) [Compound 52-2]  5.00 to 6.00
 8  Cc1nc(-c2cccnc2C(C)C)c2n1CCN(c1ccc(-c3nc(C(F)(F)F)cn3C)cc1)C2        ≥ 6.00
 9  Cc1nc(-c2cccnc2C(C)C)c2n1CCN(c1ccc(-c3nc(CO)co3)cc1)C2  4.60 to 5.00
10  Cc1nc(-c2cccnc2C(C)C)c2n1CCN(c1ccc(OCCN3CCOCC3)cc1)C2  4.60 to 5.00
11  Cc1nc(-c2cccnc2C(C)C)c2n1CCN(c1ccc(-c3cnn(C4COC4)c3)cc1)C2        < 4.60
12  Cc1nc(-c2cccnc2C(C)C)c2n1CCN(c1ccc(-c3nccn3C)cc1)C2  5.00 to 6.00
13  COc1ccc(N2CCn3c(C)nc(-c4cccnc4C(C)C)c3C2)cn1  4.60 to 5.00
14  Cc1nc(-c2cccnc2C(C)C)c2n1CCN(c1ccc(-n3ccnn3)cc1)C2  4.60 to 5.00
15  Cc1nc(-c2cccnc2C(C)C)c2n1CCN(c1ccc(C3COC(=O)N3)cc1)C2 (stereo not shown)        < 4.60
